# targetUnderTest: UniProtKB Q9NQS5
# Sequence (Q9NQS5 whole entry): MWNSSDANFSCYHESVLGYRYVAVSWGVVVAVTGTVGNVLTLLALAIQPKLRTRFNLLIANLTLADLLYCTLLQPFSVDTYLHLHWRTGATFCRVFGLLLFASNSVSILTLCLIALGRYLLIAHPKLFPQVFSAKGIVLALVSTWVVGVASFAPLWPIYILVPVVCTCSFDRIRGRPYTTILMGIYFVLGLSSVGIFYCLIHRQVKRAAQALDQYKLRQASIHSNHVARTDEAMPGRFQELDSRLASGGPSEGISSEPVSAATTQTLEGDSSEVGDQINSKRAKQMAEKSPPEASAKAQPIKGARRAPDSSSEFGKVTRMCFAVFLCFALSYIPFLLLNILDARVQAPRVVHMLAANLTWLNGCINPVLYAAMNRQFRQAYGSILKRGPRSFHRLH
# assayMethodText: cell-based
# Type: cell-based
# testContext: EC50 ± SEM, cAMP assay, CHO cells expressing human GPR84; forskolin 10 μM
quantityName: EC50 (nM)

Previously resolved entries follow.
compoundStructureString | val
O=c1cc(NCCc2ccccc2Cl)[nH]c(=O)[nH]1 | 100
COc1ccc(CCNc2cc(=O)[nH]c(=O)[nH]2)cc1OC | 810
O=c1cc(N2CCC(Cc3ccccc3)CC2)[nH]c(=O)[nH]1 | 130

(A) O=c1cc(NCCc2ccc(Cl)cc2Cl)[nH]c(=O)[nH]1
(B) O=c1cc(N2CCN(Cc3cccc4ccccc34)CC2)[nH]c(=O)[nH]1
*Q* Parameter metric = EC50. Return the lower-valued option from A and B . Return value: the label identifying the chosen record.
*A* A
